List of LD50 (median lethal dose) values.
Test system: Kunming mice
Assay: Acute toxicity test
Format: in vivo
Conditions: injected intraperitoneally
resultType: LD50 (median lethal dose) (mg/kg)

CCC1(O)CC2CN(CCc3c([nH]c4ccccc34)C(C(=O)OC)(c3cc4c(cc3OC)N(C)C3C(O)(C(=O)NNC(=O)C5CCCN5C(=O)CNC(=O)OCc5ccccc5)C(O)C5(CC)C=CCN6CCC43C65)C2)C1 (stereo not shown) : 10
CCC1(O)CC2CN(CCc3c([nH]c4ccccc34)C(C(=O)OC)(c3cc4c(cc3OC)N(C=O)C3C(O)(C(=O)NNC(=O)C5CCCN5C(=O)CNC(=O)OCc5ccccc5)C(O)C5(CC)C=CCN6CCC43C65)C2)C1 (stereo not shown) : 10
CCC1=CC2CN(C1)Cc1c([nH]c3ccccc13)C(C(=O)OC)(c1cc3c(cc1OC)N(C)C1C(O)(C(=O)NNC(=O)C4CCCN4C(=O)CNC(=O)OCc4ccccc4)C(O)C4(CC)C=CCN5CCC31C54)C2 (stereo not shown) : 12
CCC12C=CCN3CCC4(c5cc(C6(C(=O)OC)CC7CC(C(C)(F)F)CN(Cc8c6[nH]c6ccccc86)C7)c(OC)cc5N(C)C4C(O)(C(=O)NNC(=O)C4CCCN4C(=O)CNC(=O)OCc4ccccc4)C1O)C32 (stereo not shown) : 15

###

Test system: human breast cancer cell line MCF-7
Test: MTT cell growth inhibition, MCF-7
Format: cell-based
Details: Homo sapiens, MCF7; MCF-7, MTT assay, 72 h; read-out: IC50, growth of tumor cell line
resultType: IC50

CC[C@]1(O)C[C@H]2CN(CCc3c([nH]c4ccccc34)[C@@](C(=O)OC)(c3cc4c(cc3OC)N(C=O)[C@H]3[C@@](O)(C(=O)OC)[C@H](OC(C)=O)[C@]5(CC)C=CCN6CC[C@]43[C@@H]65)C2)C1 [Vincristine, reference compound] : 2.74 nM
CC[C@]12C=CCN3CC[C@@]4(c5cc([C@@]6(C(=O)OC)C[C@@H]7C[C@@H](C(C)(F)F)CN(Cc8c6[nH]c6ccccc86)C7)c(OC)cc5N(C)[C@H]4[C@@](O)(C(=O)NN)[C@@H]1O)[C@@H]32 [JJ-CCFN, hydrazinolyzed vinflunine] : 304 nM
CC[C@]1(O)C[C@@H]2CN(CCc3c([nH]c4ccccc34)[C@@](C(=O)OC)(c3cc4c(cc3OC)N(C)[C@H]3[C@@](O)(C(=O)NN)[C@H](O)[C@]5(CC)C=CCN6CC[C@]43[C@@H]65)C2)C1 [JJ-CCJ, hydrazinolyzed vinblastine] : 23.9 nM
CC[C@]1(O)C[C@@H]2CN(CCc3c([nH]c4ccccc34)[C@@](C(=O)OC)(c3cc4c(cc3OC)N[C@H]3[C@@](O)(C(=O)NN)[C@H](O)[C@]5(CC)C=CCN6CC[C@]43[C@@H]65)C2)C1 [JJ-CCXJ, hydrazinolyzed vincristine] : 26.9 nM

###

System: K562 xenografts
Test: K562 xenografts in nude mice
Type: in vivo
Conditions: K562 xenograft nude mice, before dosing
List of Body weight (g) Pre-dose values.
resultType: Body weight (g) Pre-dose

CC[C@]1(O)C[C@@H]2CN(CCc3c([nH]c4ccccc34)[C@@](C(=O)OC)(c3cc4c(cc3OC)N(C)[C@H]3[C@@](O)(C(=O)NN)[C@H](O)[C@]5(CC)C=CCN6CC[C@]43[C@@H]65)C2)C1 [JJ-CCJ, hydrazinolyzed vinblastine] : 22.1
CCC1(O)CC2CN(CCc3c([nH]c4ccccc34)C(C(=O)OC)(c3cc4c(cc3OC)N(C=O)C3C(O)(C(=O)NNC(=O)C5CCCN5C(=O)CNC(=O)OCc5ccccc5)C(O)C5(CC)C=CCN6CCC43C65)C2)C1 (stereo not drawn) : 21.2
CCC1=CC2CN(C1)Cc1c([nH]c3ccccc13)C(C(=O)OC)(c1cc3c(cc1OC)N(C)C1C(O)(C(=O)NNC(=O)C4CCCN4C(=O)CNC(=O)OCc4ccccc4)C(O)C4(CC)C=CCN5CCC31C54)C2 (stereo not drawn) : 22.1
CC[C@]1(O)C[C@@H]2CN(CCc3c([nH]c4ccccc34)[C@@](C(=O)OC)(c3cc4c(cc3OC)N(C)[C@H]3[C@@](O)(C(=O)OC)[C@H](OC(C)=O)[C@]5(CC)C=CCN6CC[C@]43[C@@H]65)C2)C1 [Vinblastine, reference compound] : 21.9
CCC12C=CCN3CCC4(c5cc(C6(C(=O)OC)CC7CC(C(C)(F)F)CN(Cc8c6[nH]c6ccccc86)C7)c(OC)cc5N(C)C4C(O)(C(=O)NNC(=O)C4CCCN4C(=O)CNC(=O)OCc4ccccc4)C1O)C32 (stereo not drawn) : 22.9
CC[C@]1(O)C[C@@H]2CN(CCc3c([nH]c4ccccc34)[C@@](C(=O)OC)(c3cc4c(cc3OC)N[C@H]3[C@@](O)(C(=O)NN)[C@H](O)[C@]5(CC)C=CCN6CC[C@]43[C@@H]65)C2)C1 [JJ-CCXJ, hydrazinolyzed vincristine] : 22.4
CCC1=C[C@@H]2CN(C1)Cc1c([nH]c3ccccc13)[C@@](C(=O)OC)(c1cc3c(cc1OC)N(C)[C@H]1[C@@](O)(C(=O)NN)[C@H](O)[C@]4(CC)C=CCN5CC[C@]31[C@@H]54)C2 [JJ-CCRB, hydrazinolyzed vinorelbine] : 21.8
CCC1(O)CC2CN(CCc3c([nH]c4ccccc34)C(C(=O)OC)(c3cc4c(cc3OC)N(C)C3C(O)(C(=O)NNC(=O)C5CCCN5C(=O)CNC(=O)OCc5ccccc5)C(O)C5(CC)C=CCN6CCC43C65)C2)C1 (stereo not drawn) : 22.3
CC[C@]12C=CCN3CC[C@@]4(c5cc([C@@]6(C(=O)OC)C[C@@H]7C[C@@H](C(C)(F)F)CN(Cc8c6[nH]c6ccccc86)C7)c(OC)cc5N(C)[C@H]4[C@@](O)(C(=O)NN)[C@@H]1O)[C@@H]32 [JJ-CCFN, hydrazinolyzed vinflunine] : 21.5
